tested on: BT-549; test: NCI tumour cell line growth inhibition, 48 h
Calls of active or inactive are those of the source. Cut-off read from the data, not from the text of the source: active = GI50 up to about 1.1 µM and inactive = higher.
Labels: active, inactive

* COc1cc2c(cc1OCCCCN1CCN(CCCCOc3cc4c(cc3OC)C(=O)N3CCC[C@H]3C=N4)CC1)N=C[C@@H]1CCCN1C2=O | active
* COCN(CCC1=CCCCC1)C(=O)OC | inactive
* CC1(C)CC2C(=O)c3ccccc3NC2c2ccccc21 (stereo not given) | inactive
* O=[N+]([O-])c1ccc(O)c(/C=N/CC2CCCN3CCCCC23)c1 (stereo not given) | inactive
* CCN(CC)c1ccc2cc(-c3csc(-c4ccc(N(C)C)cc4)n3)c(=O)oc2c1 | inactive
* O=S(=O)(O)c1cc(S(=O)(=O)O)c2c(/N=N/c3ccc(S(=O)(=O)O)c4ccccc34)c(O)ccc2c1 | inactive
* C=CCN1C(=O)/C(=C/c2ccccc2)N=C1SC1OC(COC(=O)c2ccccc2)C(OC(=O)c2ccccc2)C1OC(=O)c1ccccc1 (stereo not given) | inactive
* O=[N+]([O-])c1cccnc1-n1cnc2ccccc21 | inactive
* CC(=O)C(=NNc1ccc(-n2c(C)nc3ccc(Br)cc3c2=O)cc1)C(C)=O | inactive
* Cc1nc(O)nc2nc3ccc(Cl)cc3c(N(CCO)CCO)c12 | inactive
* CN1CCN(C(=S)N(C(=O)c2ccc(Cl)cc2)C2CCCCC2)CC1 | inactive
* COc1cc(/C=C2\N=C(c3ccccc3)N(/N=C3\C(=O)Nc4ccccc43)C2=O)cc(OC)c1OC | inactive
* CN(C)CCNC1=CC(=O)c2nc3ccccc3c3ccnc1c23 | inactive
* C/C(=C/C(=O)Nn1c(Cc2ccccc2)n[nH]c1=O)C(=O)O | inactive
* O=C(O)Cn1cnc2c(O)nc(Nc3ccccc3)nc21 | inactive
* O=C(Cc1ccc(Cl)c(Cl)c1)NCC1(N2CCCCC2)CCCCC1 | inactive
* CC(=O)Oc1ccc2c(c1)c1c(OC(C)=O)c3ccccc3c(OC(C)=O)c1n2Cc1cccc(C)c1 | inactive
* C=C1C(C2(C)C(OC(C)=O)CC(=O)OC(C)(COC(C)=O)C2CC(=O)OC)C(OC=O)C(OC(=O)C(O)C(C)CC)C2(C)C(c3ccoc3)CC(=O)C12O (stereo not given) | inactive
* O=S1(=O)CCC2=CC(C(F)(F)F)=CC(C(F)(F)F)=CN21 | inactive
* COc1cccc(C2CC(C)(O)Oc3cc4c(cc32)OCO4)c1O (stereo not given) | inactive
